- System: human hepatocellular carcinoma cell line HepG-2
- test_description: MTT assay, inhibition of tumor cell growth (HepG2)
- Type: cell-based
- assay_context: 72 hours incubation, read-out: IC50 on the tumor cells HepG2
observable: IC50 (µM)

Some compounds with recorded IC50:
>  <smi>
Cc1ccc2c(c1)C(=C1Oc3ccccc3C1=NO)C(=O)N2Cc1ccccc1

>  <target_of_assay>
human hepatocellular carcinoma cell line HepG-2

>  <measurement_unit>
µM

>  <IC50>
45

$$$$
>  <smi>
CCN1C(=O)C(=C2C(=O)Oc3ccccc32)c2cnccc21

>  <target_of_assay>
human hepatocellular carcinoma cell line HepG-2

>  <measurement_unit>
µM

>  <IC50>
8.4

$$$$
>  <smi>
CC(C)N1C(=O)C(=C2C(=O)Oc3ccc(F)cc32)c2cccnc21

>  <target_of_assay>
human hepatocellular carcinoma cell line HepG-2

>  <measurement_unit>
µM

>  <IC50>
5.6

$$$$
>  <smi>
CCN1C(=O)C(=C2Oc3ccc(Cl)cc3C2=O)c2cccc(F)c21

>  <target_of_assay>
human hepatocellular carcinoma cell line HepG-2

>  <measurement_unit>
µM

>  <IC50>
12

$$$$

A = CCN1C(=O)C(=C2Oc3ccccc3C2=O)c2cccc(F)c21
B = O=C1C(=C2Oc3ccccc3C2=NO)c2cc(F)ccc2N1Cc1ccccc1
Among A and B , which shows a numerically higher IC50 result? // output: label of the selected item
A
